Each recorded value in this set is attributed to paper PMC10939098.

Entries and their measured MIC follow.
system: PER-producing P. aeruginosa clinical isolates; test: microbe, parasite or virus in culture; format: cell-based, Pseudomonas aeruginosa; settings: Pseudomonas aeruginosa, isolate PA272
Express it in µg/mL; write the number only.

Below are worked cases with known answers.
# smiles_notation, MIC [µg/mL]
measured = [
    ("CC(C)(O/N=C(\\C(=O)N[C@@H]1C(=O)N2C(C(=O)[O-])=C(C[N+]3(CCNC(=O)c4ccc(O)c(O)c4Cl)CCCC3)CS[C@H]12)c1csc(N)n1)C(=O)O", 2),
    ("C[C@@H](O)[C@H]1C(=O)N2C(C(=O)O)=C(S[C@@H]3CN[C@H](C(=O)N(C)C)C3)[C@H](C)[C@H]12", 32),
]

What value of MIC has been recorded for this entry: `C[C@@H](O)[C@H]1C(=O)N2C(C(=O)O)=C(SCCN=CN)C[C@H]12`
16

###

test system: PAO1 transconjugants carrying blaPER-1 plasmids; experiment: Broth microdilution MIC, transconjugants and recipient PAO1-Rrif; type: cell-based; conditions: Pseudomonas aeruginosa, PAO1, transconjugant PAO1/pPA975
quantity_measured: MIC (µg/mL)
Express it in µg/mL; write the number only.

Below are worked cases with known answers.
# compound, units_of_measure, MIC
rows = [
    ("CO/N=C(\\C(=O)N[C@@H]1C(=O)N2C(C(=O)[O-])=C(C[N+]3(C)CCCC3)CS[C@H]12)c1csc(N)n1 [FEP, cefepime]", "µg/mL", 64),
    ("CCN1CCN(C(=O)N[C@@H](C(=O)N[C@@H]2C(=O)N3[C@@H]2SC(C)(C)[C@@H]3C(=O)O)c2ccccc2)C(=O)C1=O", "µg/mL", 128),
    ("CC(C)(O/N=C(\\C(=O)N[C@@H]1C(=O)N2C(C(=O)[O-])=C(C[n+]3ccccc3)CS[C@H]12)c1csc(N)n1)C(=O)O", "µg/mL", 128),
    ("CC(C)(O/N=C(\\C(=O)N[C@@H]1C(=O)N2C(C(=O)[O-])=C(C[N+]3(CCNC(=O)c4ccc(O)c(O)c4Cl)CCCC3)CS[C@H]12)c1csc(N)n1)C(=O)O", "µg/mL", 2),
]

Now let's try a different one.
What value of MIC has been recorded for this entry: `C[C@@H](O)[C@H]1C(=O)N2C(C(=O)O)=C(S[C@@H]3CN[C@H](C(=O)N(C)C)C3)[C@H](C)[C@H]12`
2

###

Biological target: PER-4 (Pseudomonas aeruginosa, UniProt P37321, S135T)
Sequence (P37321 27-308 S135T): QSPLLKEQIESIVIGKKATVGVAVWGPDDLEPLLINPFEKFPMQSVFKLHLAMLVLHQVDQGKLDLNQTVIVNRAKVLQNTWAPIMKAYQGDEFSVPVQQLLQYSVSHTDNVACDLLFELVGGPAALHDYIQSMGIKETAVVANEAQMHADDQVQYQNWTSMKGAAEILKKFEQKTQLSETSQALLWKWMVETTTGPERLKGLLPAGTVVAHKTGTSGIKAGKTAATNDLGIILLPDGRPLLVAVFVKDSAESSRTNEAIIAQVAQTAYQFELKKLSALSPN
Assay: Direct competition inhibition assay with nitrocefin, PER-4
Entries and their measured pIC50 follow.
Please treat pIC50 as minus the base-10 logarithm of the molar concentration.

# smiles_notation, subject_of_test, pIC50
measured = [
    ("C[C@]1(Cn2ccnn2)[C@H](C(=O)O)N2C(=O)C[C@H]2S1(=O)=O", "PER-4 (Pseudomonas aeruginosa, UniProt P37321, S135T)", 2.96),
    ("NC(=O)[C@@H]1CC[C@@H]2CN1C(=O)N2OS(=O)(=O)O", "PER-4 (Pseudomonas aeruginosa, UniProt P37321, S135T)", 3.14),
]

Now let's try a different one.
What value of pIC50 has been recorded for this entry: `O=C(O)[C@H]1/C(=C/CO)O[C@@H]2CC(=O)N21`
6.82
